Let's look at some sequences and their measured protein stability index.
- Test system: Saccharomyces cerevisiae
- assay protocol: protein stability index of tFT-peptide fusion (C-terminal peptide) (PSI (0-1 scale)); higher = more stable (slower turnover)
- condition notes: genetic background: wild type; temperature: 30 C
Reply with the value as a number alone.

# seq text, measured on, result number
measured = [
    ("FRCFDAQRLGGV", "Saccharomyces cerevisiae", 0.686),
    ("TLSPGYTFPLSL", "Saccharomyces cerevisiae", 0.743),
    ("IYSFFHHRFVTV", "Saccharomyces cerevisiae", 0.546),
]

Incoming: Tell me the measured protein stability index of GGMAFSRPSFNG , please.
Outgoing: 0.729

Incoming: # protein stability index lookup, item HWSVATNMLEQH
Outgoing: 0.74

Incoming: Which protein stability index is listed for KKKKQKKNNNKR ?
Outgoing: 0.536

Incoming: Using the record for PPTVSRPPHLPT , report its protein stability index.
Outgoing: 0.69

Incoming: What does the data say about its protein stability index? Entry: RPYGKQTERYVK
Outgoing: 0.672

Incoming: What protein stability index value was documented for this sequence, AGSVIPCPASRP ?
Outgoing: 0.695

* * *

Listed here are sequences together with their documented protein stability index.
- System: Saccharomyces cerevisiae
- assay protocol: protein stability index of tFT-peptide fusion (C-terminal peptide) (PSI (0-1 scale)); higher = more stable (slower turnover)
- condition notes: genetic background: das1 deletion; temperature: 30 C
Write no unit; give the number alone.

Incoming: Reported protein stability index for Saccharomyces cerevisiae, given FWTINDDYGFLT [YLR278C C-terminal 12 aa] ?
Outgoing: 0.757

Incoming: Lab note: need protein stability index with Saccharomyces cerevisiae for entry SLLGIQKSVRNL [MDM20 C-terminal 12 aa] , please look it up.
Outgoing: 0.691

Incoming: Notebook entry, Saccharomyces cerevisiae assay: protein stability index of CLILSCSWWILN [YJR020W C-terminal 12 aa] = ?
Outgoing: 0.292

Incoming: Give the reported protein stability index for GKRIIGMLHLDS [PUF4 C-terminal 12 aa] (system: Saccharomyces cerevisiae).
Outgoing: 0.685

Incoming: Field: protein stability index (Saccharomyces cerevisiae). Entry: GVRRSVRLNNRV [MCM4 C-terminal 12 aa]
Outgoing: 0.699

Incoming: I'm curious: which protein stability index was measured for YLRRFFEVTSLV [EMP24 C-terminal 12 aa] tested on Saccharomyces cerevisiae?
Outgoing: 0.552

* * *

- Test system: Saccharomyces cerevisiae
- assay protocol: protein stability index of tFT-peptide fusion (C-terminal peptide) (PSI (0-1 scale)); higher = more stable (slower turnover)
- condition notes: genetic background: wild type; temperature: 37 C
This section presents sequences with their documented protein stability index values.
Answer with a number only.

// solved cases for protein stability index follow
# seq text, measured on, result number
records = [
    ("LFHSIPRLLLLK", "Saccharomyces cerevisiae", 0.218),
    ("FFVWLGWGMFYG", "Saccharomyces cerevisiae", 0.604),
    ("LILLTFTLRVPV", "Saccharomyces cerevisiae", 0.362),
]

Incoming: Name the recorded protein stability index for GGLLSQLLRSIG .
Outgoing: 0.581

Incoming: Entry FVGLFEYILLFV has what protein stability index?
Outgoing: 0.348

Incoming: Look at this sequence and give its reported protein stability index. KRARVIWKLVVV
Outgoing: 0.488

Incoming: I am curious: what protein stability index value has been reported for TYHRSYLLATVV ?
Outgoing: 0.331

Incoming: Requested read-out: protein stability index. Entry: PPGSPPGSLRPT
Outgoing: 0.703

* * *

- System: Saccharomyces cerevisiae
- assay protocol: protein stability index of tFT-peptide fusion (C-terminal peptide) (PSI (0-1 scale)); higher = more stable (slower turnover)
- condition notes: genetic background: wild type; temperature: 30 C
The following sequences are listed with their measured protein stability index values.
Lab note: write the figure by itself, no unit.

The following sequences have reported results that may help.
# seq text, result number
records = [
    ("VHKLGWSLSFDA [POR1 C-terminal 12 aa]", 0.664),
    ("QFFFTSRQKNYV [ERP4 C-terminal 12 aa]", 0.654),
    ("ALAFSKIPSVFL [YMR153C-A C-terminal 12 aa]", 0.687),
    ("ISKLKGISKPSP [MDS3 C-terminal 12 aa]", 0.687),
    ("YIDDIDQTIPKY [UBA4 C-terminal 12 aa]", 0.686),
]

Incoming: Report protein stability index for AIFLFLVGLFMK [UBC6 C-terminal 12 aa] please.
Outgoing: 0.297

Incoming: State the recorded protein stability index for this entry: REAKNLPKPSFL [EDC1 C-terminal 12 aa]
Outgoing: 0.698

Incoming: Given the sequence DNFINSVKLNFR [SEC10 C-terminal 12 aa] , what is its reported protein stability index?
Outgoing: 0.734

Incoming: Name the reported protein stability index value associated with the sequence KKQKVVPLPTDI [SMM1 C-terminal 12 aa]
Outgoing: 0.654

Incoming: Can you look up the measured protein stability index of RVKILHRDDTKK [UPF3 C-terminal 12 aa] for me?
Outgoing: 0.732

Incoming: If you can, please state the reported protein stability index value of SQDDSILSSDPF [NIS1 C-terminal 12 aa] .
Outgoing: 0.666

Incoming: I would be grateful if you could share the reported protein stability index for AIDTLLKMSSSD [SRL3 C-terminal 12 aa] .
Outgoing: 0.674

Incoming: For NDAQKRAIDENF [SIS1 C-terminal 12 aa] , what is its reported protein stability index?
Outgoing: 0.683

Incoming: Need protein stability index of RKEDDKRDTQEK [SOF1 C-terminal 12 aa] , thanks.
Outgoing: 0.67

Incoming: Value lookup for protein stability index; key = IAKRFAKALGRS [ARN2 C-terminal 12 aa]
Outgoing: 0.695

Incoming: Report protein stability index for IHENEESNENEG [RQC1 C-terminal 12 aa] please.
Outgoing: 0.663

* * *

protein stability index: recorded values
- Tested on: Saccharomyces cerevisiae
- assay protocol: protein stability index of tFT-peptide fusion (C-terminal peptide) (PSI (0-1 scale)); higher = more stable (slower turnover)
- condition notes: genetic background: doa10 deletion; temperature: 30 C
// no unit, no text: just the number

# seq text, measured parameter, result number
records = [
    ("LVLSFVMLVSGH", "protein stability index", 0.149),
]

Incoming: What value of measured protein stability index is listed for CFFVSLFFYIDC ?
Outgoing: 0.191

Incoming: So what does the record say about protein stability index for FSFSFWALLWFP ?
Outgoing: 0.48

Incoming: I am curious: what protein stability index value has been reported for WALWGFVFWDWW ?
Outgoing: 0.379

Incoming: Fill blank: measured protein stability index of the sequence SVIVSSFFLWVF is ____.
Outgoing: 0.203

Incoming: Need protein stability index, item PPSPPLLFHFPP
Outgoing: 0.661

Incoming: Need protein stability index, item VSCYYVFLIPFW
Outgoing: 0.408

Incoming: Quick check: protein stability index of ARGVAAAFVSGF ?
Outgoing: 0.661

Incoming: What does the data say about its protein stability index? Entry: FFVMVFTVEVFV
Outgoing: 0.0639

Incoming: Report protein stability index for TYHRSYLLATVV please.
Outgoing: 0.181

* * *

- System: Saccharomyces cerevisiae
- assay protocol: protein stability index of tFT-peptide fusion (C-terminal peptide) (PSI (0-1 scale)); higher = more stable (slower turnover)
- condition notes: genetic background: wild type; temperature: 30 C
measured parameter: protein stability index
Lab note: write the figure by itself, no unit.

Example entries and their recorded answers appear below.
# seq text, measured on, protein stability index
rows = [
    ("RLGNPPPFSTLG", "Saccharomyces cerevisiae", 0.691),
    ("PPPTPPRPPSPP", "Saccharomyces cerevisiae", 0.656),
]

Incoming: Please look up its protein stability index: PPPLSVPVPPLS
Outgoing: 0.68

Incoming: Which protein stability index is reported for this sequence? PFPPLRSLPRPP
Outgoing: 0.737

Incoming: Requested field: protein stability index. Item: SGGVWWGRGRVS
Outgoing: 0.727

Incoming: GET /values?readout=protein stability index&item= VGLTNSHTHVRR
Outgoing: 0.767

Incoming: Fill blank: measured protein stability index of the sequence GRGFVLSVAVVA is ____.
Outgoing: 0.435

Incoming: # query: protein stability index of entry KIHINTMFQIKK
Outgoing: 0.536

* * *

- Test system: Saccharomyces cerevisiae
- assay protocol: protein stability index of tFT-peptide fusion (C-terminal peptide) (PSI (0-1 scale)); higher = more stable (slower turnover)
- condition notes: genetic background: das1 deletion; temperature: 30 C
Overview of recorded protein stability index for various sequences
Form: value (number only, do not type unit).

Example cases with answers are listed next.
# seq text, result number
records = [
    ("SIRVIVAVRNIS", 0.554),
    ("GIGYMFLNVWLV", 0.246),
    ("VACTCILVALVV", 0.0772),
    ("VLSCVWFVVVGV", 0.245),
    ("LFFFSFSFLFFL", 0.302),
]

Incoming: Form field: reported protein stability index of FFVEKRVFFGII
Outgoing: 0.593

Incoming: Given VVWCLLARVLLV , state its recorded protein stability index.
Outgoing: 0.306
